experiment: qHTS RealTime-Glo MT Cell Viability Assay in HepG2 cells - 24 hour (AID 1224867); conditions: RealTime-Glo luminescence; series mostly up to 76.8 µM; further: nearly all actives have a fitted effect of over 50% in size
Results filed as inconclusive are left out. The source made the active and inactive calls. The call rests on the fitted dose curve; in most records, active means well fitted cell-killing curve with a large enough effect in the repeat runs; inconclusive means weak or mixed curves; inactive means flat fitted curve, though single readings scatter.
Measured endpoint: outcome

Here are 6 compounds together with their reported answers.
- Compound: "C/C=C/c1ccc(O)c(OC)c1"
  Measured: "inactive"
- Compound: "COc1cc(O)c(C(=O)c2ccccc2)cc1S(=O)(=O)O"
  Measured: "inactive"
- Compound: "CC(C)Cc1ccc(C(C)C(=O)O)cc1 (stereo not drawn)"
  Measured: "inactive"
- Compound: "COCC(C)N (stereo not drawn)"
  Measured: "inactive"
- Compound: "COc1ccccc1O"
  Measured: "inactive"
- Compound: "CO[C@H]1C=CO[C@@]2(C)Oc3c(C)c(O)c4c(O)c(c(/C=N/N5CCN(C)CC5)c(O)c4c3C2=O)NC(=O)/C(C)=C\\C=C[C@H](C)[C@H](O)[C@@H](C)[C@@H](O)[C@@H](C)[C@H](OC(C)=O)[C@@H]1C"
  Measured: "inactive"

Would you mind giving outcome for every compound in the list below?
1. COc1ccccc1NC(=O)CC(C)=O
2. CCCCOCCOCCOC(C)=O
3. OCCCc1ccccc1
4. COCCOCCOC
5. COC1=CC(=O)C[C@@H](C)[C@]12Oc1c(Cl)c(OC)cc(OC)c1C2=O
6. CCCCC/C(C=O)=C\c1ccccc1

Response:
1. inactive
2. inactive
3. inactive
4. inactive
5. inactive
6. inactive

Prompt: Entry `C[C@]12CC[C@@H]3c4ccc(O)cc4CC[C@H]3[C@@H]1CCC2=O` : reported outcome = ?
Response: inactive
